# UniProtKB P35270: IC50 values follow

Here's what some known entries look like.
>  <Compound>
CCC1(C#N)CCN(C(=O)c2cnn(-c3nc4c(c(=O)[nH]3)CCC4)c2)CC1 [Q-0725]

>  <Observed>
1 nM

$$$$
>  <Compound>
Cc1c(C(=O)N2CCN(C3CCC3(F)F)CC2)nnn1-c1nn2cccc2c(=O)[nH]1 (stereo not shown) [Q-1204]

>  <Observed>
1 nM

$$$$
>  <Compound>
Cc1c(C(=O)N2CCN(c3ncc(-c4ccccc4F)o3)CC2)cnn1-c1nn2cccc2c(=O)[nH]1 [Q-1149]

>  <Observed>
5 nM

$$$$

Continue with the compound presented below.
Entry Cc1cc(=O)[nH]c(-n2ncc(C(=O)N(C)C3CCc4ccccc43)c2C)n1 (stereo not shown) [Q-0374] — recorded IC50 = 9 nM

* * *

# UniProtKB P35270: pIC50 values follow
Answers are plain numbers, as −log10 of the molar value.

Here's what some known entries look like.
>  <Compound>
Cc1c(C(=O)N2CCN(CC(F)(F)F)CC2)nnn1-c1nn2cccc2c(=O)[nH]1 [Q-1007]

>  <Observed>
9.00

$$$$
>  <Compound>
Cc1c(C(=O)N2CCC(CC#N)CC2)cnn1-c1nn2cccc2c(=O)[nH]1 [Q-0825]

>  <Observed>
8.70

$$$$
>  <Compound>
N#CC1(c2ccccc2)CCN(C(=O)c2cnn(-c3nc4ccsc4c(=O)[nH]3)c2)CC1 [Q-0523]

>  <Observed>
7.70

$$$$
>  <Compound>
Cc1c(C(=O)N2CC3CN(c4ccccc4)CC3C2)cnn1-c1nn2cccc2c(=O)[nH]1 (stereo not drawn) [Q-0846]

>  <Observed>
8.70

$$$$
>  <Compound>
Cc1c(C(=O)N2CCC(C(F)(F)F)CC2C)cnn1-c1nc2ccsc2c(=O)[nH]1 (stereo not drawn) [Q-0422]

>  <Observed>
8.52

$$$$

Would you be so kind as to report pIC50 for each listed record?
1. Cc1c(C(=O)N2CCN(S(=O)(=O)c3ccc(Cl)nc3)CC2)cnn1-c1nn2cccc2c(=O)[nH]1 [Q-1862]
2. Cc1c(C(=O)N2CC(F)(F)C2)cnn1-c1nn2cccc2c(=O)[nH]1 [Q-0789]
3. Cc1c(C(=O)N2CCC(O)(C3CC3)CC2)cnn1-c1nn2cccc2c(=O)[nH]1 [Q-0815]
4. CCCN(CCC)C(=O)c1cnn(-c2nc(C)cc(=O)[nH]2)c1C [Q-0351]

Output:
1. 8.70
2. 8.10
3. 9.00
4. 8.00

* * *

# SNAP-hSPR (sepiapterin reductase, SPR) (Homo sapiens, UniProt P35270): IC50 values follow
# Sequence (P35270 whole entry): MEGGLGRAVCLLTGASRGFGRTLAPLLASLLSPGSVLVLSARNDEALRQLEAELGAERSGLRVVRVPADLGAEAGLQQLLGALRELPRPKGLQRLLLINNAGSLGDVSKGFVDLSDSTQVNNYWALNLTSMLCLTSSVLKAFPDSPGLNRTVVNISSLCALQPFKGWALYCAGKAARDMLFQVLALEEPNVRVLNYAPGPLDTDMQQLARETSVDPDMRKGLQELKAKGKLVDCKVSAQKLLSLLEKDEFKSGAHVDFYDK
One number for each entry, in nM.

Here's what some known entries look like.
>  <Given smiles>
Cc1c(C(=O)N2CCN(C)c3ccccc32)cnn1-c1nc2c(c(=O)[nH]1)CCC2

>  <IC50 (nM)>
2

$$$$
>  <Given smiles>
Cc1c(C(=O)N2CCN(S(=O)(=O)c3cccc4c(N(C)C)cccc34)CC2)cnn1-c1nn2cccc2c(=O)[nH]1

>  <IC50 (nM)>
2

$$$$
>  <Given smiles>
Cc1c(C(=O)N2CCN(c3nnc(-c4ccc(Cl)cc4)o3)CC2)cnn1-c1nn2cccc2c(=O)[nH]1

>  <IC50 (nM)>
8

$$$$

Entry Cc1c(C(=O)N2Cc3ccccc3C[C@H]2C(=O)NC(C)(C)C)cnn1-c1nc2c(c(=O)[nH]1)CCC2 — recorded IC50 = 8

* * *

# UniProt P35270: log10(IC50) values follow
Record value = log10 of IC50 given in nM.

>  <Compound>
Cc1c(C(=O)N2CCC(S(C)(=O)=O)CC2)cnn1-c1nn2cccc2c(=O)[nH]1

>  <log10(IC50)>
0.30

$$$$

Would you be so kind as to report log10(IC50) for each listed record?
1. Cc1c(C(=O)N2CC3CC(F)(F)CC3C2)cnn1-c1nn2cccc2c(=O)[nH]1 (centres unmarked)
2. O=C(c1cnn(-c2nc3sccc3c(=O)[nH]2)c1)N1CCC(c2c[nH]c3ccccc23)CC1
3. Cc1c(C(=O)N2CCN(S(=O)(=O)Cc3ccccc3)CC2)cnn1-c1nn2cccc2c(=O)[nH]1
4. Cc1c(C(=O)N2C[C@@H]3C[C@H]2CN3Cc2ccccc2)cnn1-c1nn2cccc2c(=O)[nH]1
5. Cc1nn(-c2nc3ccsc3c(=O)[nH]2)c(C)c1C(=O)N1CCc2ccccc2C1

Output:
1: 0.00; 2: 0.95; 3: 0.48; 4: 0.90; 5: 0.78

* * *

# SNAP-hSPR (sepiapterin reductase, SPR) (Homo sapiens, UniProt P35270): pIC50 values follow
Numbers only, as −log10 of the molar value.

>  <Molecule>
Cc1c(C(=O)N2CCN(c3nc(-c4ccccc4F)cs3)CC2)cnn1-c1nn2cccc2c(=O)[nH]1

>  <Target of assay>
SNAP-hSPR (sepiapterin reductase, SPR) (Homo sapiens, UniProt P35270)

>  <Observed>
8.22

$$$$
>  <Molecule>
Cc1c(C(=O)N2CCC(OCC(F)(F)F)CC2)cnn1-c1nn2cccc2c(=O)[nH]1

>  <Target of assay>
SNAP-hSPR (sepiapterin reductase, SPR) (Homo sapiens, UniProt P35270)

>  <Observed>
9.00

$$$$
>  <Molecule>
Cc1nn(-c2nn3cccc3c(=O)[nH]2)cc1C(=O)N1CCN(C2CCC2)CC1

>  <Target of assay>
SNAP-hSPR (sepiapterin reductase, SPR) (Homo sapiens, UniProt P35270)

>  <Observed>
8.70

$$$$
>  <Molecule>
O=C(c1cnn(-c2nc3c(c(=O)[nH]2)CCC3)c1)N1CCC(C2CC2)CC1

>  <Target of assay>
SNAP-hSPR (sepiapterin reductase, SPR) (Homo sapiens, UniProt P35270)

>  <Observed>
8.70

$$$$

Would you be so kind as to report pIC50 for each listed record?
1. C=CCC(C#N)C1CCN(C(=O)c2cnn(-c3nc4c(c(=O)[nH]3)CCC4)c2C)CC1 (centres unmarked)
2. CCC(C#N)C1(F)CCN(C(=O)c2cnn(-c3nc4c(c(=O)[nH]3)CCC4)c2C)CC1 (centres unmarked)
3. Cc1c(C(=O)N2CCC3(CC2)CC3C(=O)N(C)C2CC2)cnn1-c1nn2cccc2c(=O)[nH]1 (centres unmarked)
4. Cc1c(C(=O)N2CCC(c3nc(-c4ccncc4)cs3)CC2)cnn1-c1nc2c(c(=O)[nH]1)CCC2
5. Cc1c(C(=O)N2CCN(C3CCC3(F)F)CC2)cnn1-c1nn2cccc2c(=O)[nH]1 (centres unmarked)
6. Cc1c(C(=O)N(CCc2ccccc2)CC(O)C(F)(F)F)cnn1-c1nc2c(c(=O)[nH]1)CCC2 (centres unmarked)
7. Cc1c(C(=O)N2CCC(c3nc4cc(F)ccc4s3)CC2)cnn1-c1nc2ccsc2c(=O)[nH]1
8. Cc1c(C(=O)N2CCc3nc(-c4cccc(C(F)(F)F)c4)sc3C2)cnn1-c1nn2cccc2c(=O)[nH]1

Output:
1. 8.52
2. 9.00
3. 9.00
4. 8.70
5. 9.00
6. 7.70
7. 8.22
8. 8.00

Would you be so kind as to report pIC50 for each listed record?
1. COC(=O)c1cnn(-c2nc3c(c(=O)[nH]2)CC(C)(C)C3)c1C
2. Cc1c(C(=O)N2CCN(S(=O)(=O)c3ccccc3Cl)CC2)cnn1-c1nn2cccc2c(=O)[nH]1
3. Cc1c(C(=O)N2CCC(C3(C(F)(F)F)CC3)CC2)cnn1-c1nc2c(c(=O)[nH]1)CCC2

Output:
[5.30, 9.00, 8.70]

* * *

# SNAP-hSPR (sepiapterin reductase, SPR) (Homo sapiens, UniProt P35270): pIC50 values follow
Answers are plain numbers, as −log10 of the molar value.

Here's what some known entries look like.
>  <Molecule>
CCC1(C#N)CCN(C(=O)c2cnn(-c3nn4c(F)ccc4c(=O)[nH]3)c2C)CC1

>  <Target of assay>
SNAP-hSPR (sepiapterin reductase, SPR) (Homo sapiens, UniProt P35270)

>  <pIC50>
9.00

$$$$
>  <Molecule>
CC[C@@H](C#N)C1CCN(C(=O)c2cnn(-c3nc4c(c(=O)[nH]3)CCC4)c2C)CC1

>  <Target of assay>
SNAP-hSPR (sepiapterin reductase, SPR) (Homo sapiens, UniProt P35270)

>  <pIC50>
8.70

$$$$
>  <Molecule>
Cc1c(C(N2CCC(C(F)(F)F)CC2)C(F)(F)F)cnn1-c1nc2c(c(=O)[nH]1)CCC2 (stereo not shown)

>  <Target of assay>
SNAP-hSPR (sepiapterin reductase, SPR) (Homo sapiens, UniProt P35270)

>  <pIC50>
5.40

$$$$

Continue with the molecule presented below.
Entry Cc1c(C(=O)N2CCN(c3nc(-c4ccc(C#N)cc4)cs3)CC2)cnn1-c1nn2cccc2c(=O)[nH]1 — recorded pIC50 = 8.70
